- ASSAY TARGET: T1, human C1s (human, UniProt P09871 16-688)
- T1 construct: Analyte in the Biacore assays; also called hC1s; serum-derived human C1s (CompTech)
- T1 sequence: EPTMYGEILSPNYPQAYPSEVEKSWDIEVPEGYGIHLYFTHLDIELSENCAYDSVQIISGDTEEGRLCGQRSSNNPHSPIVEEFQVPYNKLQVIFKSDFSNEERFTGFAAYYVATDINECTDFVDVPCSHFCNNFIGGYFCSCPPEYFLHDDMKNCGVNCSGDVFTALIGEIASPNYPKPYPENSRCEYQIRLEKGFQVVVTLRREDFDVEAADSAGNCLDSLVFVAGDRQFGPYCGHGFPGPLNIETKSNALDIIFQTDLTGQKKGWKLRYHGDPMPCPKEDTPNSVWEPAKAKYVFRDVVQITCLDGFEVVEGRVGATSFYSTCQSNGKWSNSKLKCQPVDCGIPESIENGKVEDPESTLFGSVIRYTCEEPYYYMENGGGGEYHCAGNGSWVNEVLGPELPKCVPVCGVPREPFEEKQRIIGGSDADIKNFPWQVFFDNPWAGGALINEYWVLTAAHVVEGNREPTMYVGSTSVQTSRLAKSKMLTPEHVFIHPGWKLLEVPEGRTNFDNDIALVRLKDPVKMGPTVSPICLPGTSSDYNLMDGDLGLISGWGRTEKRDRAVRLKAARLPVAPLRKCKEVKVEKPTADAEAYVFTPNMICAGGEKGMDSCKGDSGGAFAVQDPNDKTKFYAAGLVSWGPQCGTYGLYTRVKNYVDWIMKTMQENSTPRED
- PROTOCOL: SPR (Biacore T200, 37C), Ab captured on protein A/G; pH 5.8, 1.2 mM Ca
MEASUREMENT NAME: pKd
Notebook: values listed as pKd are -log10 of the concentration (mol/L).

Query: Query (binder): C1_IPN92H0288-SG4GK/IPN93L0212-SK1 (antibody, human IgG4 S228P, kappa, name in Kabat numbering, V domains shown, VL substitutions from IPN009VK3, Kabat numbering; also called IPN92H0288/IPN93L0212) VH: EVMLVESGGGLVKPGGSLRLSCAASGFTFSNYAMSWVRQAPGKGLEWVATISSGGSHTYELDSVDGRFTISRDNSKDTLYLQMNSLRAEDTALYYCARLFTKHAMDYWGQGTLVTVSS VL: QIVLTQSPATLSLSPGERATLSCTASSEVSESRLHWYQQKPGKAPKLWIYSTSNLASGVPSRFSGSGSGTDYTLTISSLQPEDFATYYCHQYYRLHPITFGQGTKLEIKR ; field requested: pKd
Response: 7.68

Query: Here is the next binder: C1_IPN92H0033-SG4GK/IPN93L0090-SK1 (antibody, human IgG4 S228P, kappa, name in Kabat numbering, V domains shown, VL substitutions from IPN009VK3, Kabat numbering; also called IPN92H0033/IPN93L0090) VH: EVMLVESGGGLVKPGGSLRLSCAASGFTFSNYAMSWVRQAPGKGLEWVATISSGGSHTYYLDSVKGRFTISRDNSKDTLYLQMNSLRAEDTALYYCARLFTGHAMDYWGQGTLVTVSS VL: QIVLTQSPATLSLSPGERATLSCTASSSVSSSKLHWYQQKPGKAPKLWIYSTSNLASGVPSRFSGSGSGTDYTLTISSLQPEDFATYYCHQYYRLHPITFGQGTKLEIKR
Response: 8.02

Query: Here is the next binder: C1_IPN92H0232-SG4GK/IPN93L0024-SK1 (antibody, human IgG4 S228P, kappa, name in Kabat numbering, V domains shown, Substitutions from IPN009VH2, Kabat numbering; also called IPN92H0232/IPN93L0024) VH: EVMLVESGGGLVKPGGSLRLSCAASGFTFSNYAMSWVRQAPGKGLEWVATISSGGSHTYYLDSVKGRFTISRDNSKDTLYLQMNSLRAEDTALYYCARLFTRHAMDYWGQGTLVTVSS VL: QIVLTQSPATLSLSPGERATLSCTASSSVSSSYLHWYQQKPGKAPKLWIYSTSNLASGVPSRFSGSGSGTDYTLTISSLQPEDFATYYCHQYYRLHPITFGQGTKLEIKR
Response: 8.07

Query: Here is the next binder: C1_IPN92H0156-SG4GK/IPN93L0024-SK1 (antibody, human IgG4 S228P, kappa, name in Kabat numbering, V domains shown, Substitutions from IPN009VH2, Kabat numbering; also called IPN92H0156/IPN93L0024) VH: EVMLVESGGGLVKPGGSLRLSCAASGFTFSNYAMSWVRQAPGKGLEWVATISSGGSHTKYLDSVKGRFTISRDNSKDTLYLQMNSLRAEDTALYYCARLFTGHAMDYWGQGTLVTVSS VL: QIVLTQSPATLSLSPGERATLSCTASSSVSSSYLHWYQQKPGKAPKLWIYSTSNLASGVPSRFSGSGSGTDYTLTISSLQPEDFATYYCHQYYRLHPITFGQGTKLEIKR
Response: 7.83

Query: Here is the next binder: C1_IPN92H0033-SG4GK/IPN93L0072-SK1 (antibody, human IgG4 S228P, kappa, name in Kabat numbering, V domains shown, VL substitutions from IPN009VK3, Kabat numbering; also called IPN92H0033/IPN93L0072) VH: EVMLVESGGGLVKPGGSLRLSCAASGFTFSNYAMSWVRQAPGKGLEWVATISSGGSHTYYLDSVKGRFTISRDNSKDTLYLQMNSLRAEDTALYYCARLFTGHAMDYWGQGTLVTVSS VL: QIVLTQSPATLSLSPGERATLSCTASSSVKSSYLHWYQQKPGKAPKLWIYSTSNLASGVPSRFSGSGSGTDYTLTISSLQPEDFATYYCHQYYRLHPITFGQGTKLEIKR
Response: 8.04

Query: Here is the next binder: C1_IPN92H0159-SG4GK/IPN93L0024-SK1 (antibody, human IgG4 S228P, kappa, name in Kabat numbering, V domains shown, Substitutions from IPN009VH2, Kabat numbering; also called IPN92H0159/IPN93L0024) VH: EVMLVESGGGLVKPGGSLRLSCAASGFTFSNYAMSWVRQAPGKGLEWVATISSGGSHTYDLDSVKGRFTISRDNSKDTLYLQMNSLRAEDTALYYCARLFTGHAMDYWGQGTLVTVSS VL: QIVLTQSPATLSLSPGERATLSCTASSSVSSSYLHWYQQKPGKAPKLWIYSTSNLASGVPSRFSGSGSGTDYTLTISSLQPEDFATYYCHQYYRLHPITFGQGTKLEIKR
Response: 7.78

Query: Here is the next binder: C1_IPN92H0194-SG4GK/IPN93L0024-SK1 (antibody, human IgG4 S228P, kappa, name in Kabat numbering, V domains shown, Substitutions from IPN009VH2, Kabat numbering; also called IPN92H0194/IPN93L0024) VH: EVMLVESGGGLVKPGGSLRLSCAASGFTFSNYAMSWVRQAPGKGLEWVATISSGGSHTYYLDSVKERFTISRDNSKDTLYLQMNSLRAEDTALYYCARLFTGHAMDYWGQGTLVTVSS VL: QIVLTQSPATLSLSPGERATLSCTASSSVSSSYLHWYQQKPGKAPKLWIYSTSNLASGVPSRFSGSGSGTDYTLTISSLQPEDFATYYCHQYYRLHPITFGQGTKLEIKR
Response: 8.24

Query: Here is the next binder: C1_IPN92H0166-SG4GK/IPN93L0024-SK1 (antibody, human IgG4 S228P, kappa, name in Kabat numbering, V domains shown, Substitutions from IPN009VH2, Kabat numbering; also called IPN92H0166/IPN93L0024) VH: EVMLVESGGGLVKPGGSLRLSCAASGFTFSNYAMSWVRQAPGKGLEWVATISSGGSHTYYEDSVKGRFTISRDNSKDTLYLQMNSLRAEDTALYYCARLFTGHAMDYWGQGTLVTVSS VL: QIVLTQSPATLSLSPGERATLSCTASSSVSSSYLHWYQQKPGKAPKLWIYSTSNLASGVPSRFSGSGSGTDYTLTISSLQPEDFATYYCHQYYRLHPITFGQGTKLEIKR
Response: 8.42

Query: Here is the next binder: C1_IPN92H0281-SG4GK/IPN93L0091-SK1 (antibody, human IgG4 S228P, kappa, name in Kabat numbering, V domains shown, Substitutions from IPN009VH2 / IPN009VK3, Kabat numbering; also called IPN92H0281/IPN93L0091) VH: EVMLVESGGGLVKPGGSLRLSCAASGFTFSNYAMSWVRQAPGKGLEWVATISSGGSKTYELDSVDERFTISRDNSKDTLYLQMNSLRAEDTALYYCARLFTKHAMDYWGQGTLVTVSS VL: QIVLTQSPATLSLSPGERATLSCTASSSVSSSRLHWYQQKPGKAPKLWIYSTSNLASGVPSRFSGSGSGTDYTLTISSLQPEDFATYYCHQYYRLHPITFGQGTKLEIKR
Response: 7.95

Query: Here is the next binder: C1_IPN92H0165-SG4GK/IPN93L0024-SK1 (antibody, human IgG4 S228P, kappa, name in Kabat numbering, V domains shown, Substitutions from IPN009VH2, Kabat numbering; also called IPN92H0165/IPN93L0024) VH: EVMLVESGGGLVKPGGSLRLSCAASGFTFSNYAMSWVRQAPGKGLEWVATISSGGSHTYYDDSVKGRFTISRDNSKDTLYLQMNSLRAEDTALYYCARLFTGHAMDYWGQGTLVTVSS VL: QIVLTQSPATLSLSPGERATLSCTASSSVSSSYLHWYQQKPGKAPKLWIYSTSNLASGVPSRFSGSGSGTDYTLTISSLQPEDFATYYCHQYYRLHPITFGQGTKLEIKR
Response: 8.43
